# target or system: G protein-coupled receptor kinase 6 (Homo sapiens) (UniProt P43250)
# Sequence (P43250 whole entry, looked up): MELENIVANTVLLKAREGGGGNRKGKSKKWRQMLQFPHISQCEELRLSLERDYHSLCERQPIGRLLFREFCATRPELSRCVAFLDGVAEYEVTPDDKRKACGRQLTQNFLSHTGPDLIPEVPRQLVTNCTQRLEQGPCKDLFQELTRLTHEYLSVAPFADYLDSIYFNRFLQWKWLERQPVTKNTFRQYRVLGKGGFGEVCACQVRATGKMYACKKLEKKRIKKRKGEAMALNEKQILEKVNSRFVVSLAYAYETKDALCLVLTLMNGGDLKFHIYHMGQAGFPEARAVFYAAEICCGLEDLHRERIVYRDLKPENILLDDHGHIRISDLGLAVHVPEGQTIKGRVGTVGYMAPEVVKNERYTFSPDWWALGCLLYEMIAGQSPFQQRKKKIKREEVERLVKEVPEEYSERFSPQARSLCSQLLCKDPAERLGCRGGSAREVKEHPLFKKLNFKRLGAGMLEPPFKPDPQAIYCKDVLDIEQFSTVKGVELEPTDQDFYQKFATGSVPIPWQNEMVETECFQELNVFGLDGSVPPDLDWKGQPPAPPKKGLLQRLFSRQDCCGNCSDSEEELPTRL
# setup conditions: at 10 µM
measured quantity: residual activity (%)
// return numeric value only (unit: %, not printed)

Simply: COc1ccc2c(c1)/C(=C/c1cnc[nH]1)C(=O)N2 , G protein-coupled receptor kinase 6 (Homo sapiens) (UniProt P43250), residual activity = 76

Simply: CCn1cnc2c(Nc3cccc(Cl)c3)nc(N[C@@H]3CCCC[C@@H]3N)nc21 , G protein-coupled receptor kinase 6 (Homo sapiens) (UniProt P43250), residual activity = 68

Simply: O=C1Nc2ccc3ncsc3c2/C1=C/c1c[nH]cn1 , G protein-coupled receptor kinase 6 (Homo sapiens) (UniProt P43250), residual activity = 60

Simply: COc1ccc2c(c[n+](C)c3c4cc5c(cc4ccc23)OCO5)c1OC , G protein-coupled receptor kinase 6 (Homo sapiens) (UniProt P43250), residual activity = 93

***
Simply: COc1cc2ncnc(Nc3ccc(OCc4ccccc4)cc3)c2cc1OC , G protein-coupled receptor kinase 6 (Homo sapiens) (UniProt P43250), residual activity = 97

Simply: COC(=O)[C@@]1(O)C[C@H]2O[C@]1(C)n1c3ccccc3c3c4c(c5c6ccccc6n2c5c31)C(=O)NC4 , G protein-coupled receptor kinase 6 (Homo sapiens) (UniProt P43250), residual activity = 5

Simply: N/C(=N\[N+](=O)[O-])N/N=C\c1ccc(-c2cccc([N+](=O)[O-])c2)o1 , G protein-coupled receptor kinase 6 (Homo sapiens) (UniProt P43250), residual activity = 94

Simply: CC(C)(C)c1cc(C=C(C#N)C#N)cc(Br)c1O , G protein-coupled receptor kinase 6 (Homo sapiens) (UniProt P43250), residual activity = 104

Simply: COc1cc(OC)c(/C=C2\C(=O)Nc3ccccc32)c(OC)c1 , G protein-coupled receptor kinase 6 (Homo sapiens) (UniProt P43250), residual activity = 91

###

# target or system: Serine/threonine-protein kinase Sgk3 (Homo sapiens)
# setup conditions: at 1 µM
Collected residual activity values appear next to each entry.
// return numeric value only (unit: %, not printed)

The following compounds have reported results that may help.
For reference, reported residual activity for CCN1/C(=C/C(C)=O)Sc2ccc(OC)cc21 stands at 100

For reference, reported residual activity for NC(=O)c1ccc2[nH]c(-c3ccc(Oc4ccc(Cl)cc4)cc3)nc2c1 stands at 107

For reference, reported residual activity for O=C1Nc2ccc(Cl)cc2/C1=C/c1cc(Cl)c(O)c(Cl)c1 stands at 95

***
For reference, reported residual activity for CC(=O)O/N=C1\C(=C2\C(=O)Nc3cc(Br)ccc32)Nc2ccccc21 stands at 114

For reference, reported residual activity for Cn1nc2c3c(cccc31)C(=O)c1ccccc1-2 stands at 79

For reference, reported residual activity for Cc1cc2ncc(-c3ccccc3)nc2cc1C stands at 108

###

# target or system: Serine/threonine-protein kinase PAK 4 (Homo sapiens) (UniProt O96013)
# Sequence (O96013 whole entry, looked up): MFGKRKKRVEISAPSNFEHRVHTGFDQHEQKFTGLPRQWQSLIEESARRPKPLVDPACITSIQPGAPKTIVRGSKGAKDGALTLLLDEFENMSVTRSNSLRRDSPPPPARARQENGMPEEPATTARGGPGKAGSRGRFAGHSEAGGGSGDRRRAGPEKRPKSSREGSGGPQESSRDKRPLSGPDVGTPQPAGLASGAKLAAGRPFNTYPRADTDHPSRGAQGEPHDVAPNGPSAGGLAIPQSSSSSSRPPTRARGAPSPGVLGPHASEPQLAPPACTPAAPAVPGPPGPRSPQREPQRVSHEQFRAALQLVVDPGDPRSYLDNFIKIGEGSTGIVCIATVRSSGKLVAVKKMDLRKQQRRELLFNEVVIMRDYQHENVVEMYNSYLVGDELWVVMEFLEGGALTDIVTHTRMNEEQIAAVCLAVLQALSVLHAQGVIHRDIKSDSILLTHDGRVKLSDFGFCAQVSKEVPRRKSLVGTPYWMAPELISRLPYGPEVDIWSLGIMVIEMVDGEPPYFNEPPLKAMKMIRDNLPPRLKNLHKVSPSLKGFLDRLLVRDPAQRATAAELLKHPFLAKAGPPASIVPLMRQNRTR
# setup conditions: at 1 µM
Hi! Could you tag entries with residual activity below 90% as criterion met, and those at or above as criterion not met? Much appreciated.

Use these answered entries as a reference point.
Identify whether the compound c1cc(-c2cnn3cc(-c4ccc(OCCN5CCCCC5)cc4)cnc23)ccn1 records residual activity below 90%.
criterion met

Identify whether the compound CCn1cnc2c(Nc3cccc(Cl)c3)nc(N[C@@H]3CCCC[C@@H]3N)nc21 records residual activity below 90%.
criterion met

Identify whether the compound O=C1NC(=O)c2c1c1c3ccccc3n3c1c1c2c2ccccc2n1C1CCC3O1 records residual activity below 90%.
criterion met

Identify whether the compound COc1cc2ncnc(Nc3ccc(OCc4ccccc4)cc3)c2cc1OC records residual activity below 90%.
criterion not met

Shift focus to the following entry.
Identify whether the compound C[S+]([O-])c1ccc(-c2nc(-c3ccc(F)cc3)c(-c3ccncc3)[nH]2)cc1 (stereo unspecified) records residual activity below 90%.
criterion not met
